# protocol: Oral bioavailability in rat at 10 mg/kg
# Format: ADME, organism-based
# particulars: in vivo
Catalogue of bioavailability values

{"columns": ["compoundStructureString", "relation", "bioavailability (%)"],
 "data": [
  ["CCN1CCc2ccc(OCCCN3CCCCC3)cc2C1", "=", 69],
  ["CC(C)N1CCCc2cc(OCCCN3CCCCC3)ccc2C1", "≥", 100]
]}

---

# systemTested: Histamine H3 receptor (Homo sapiens, UniProt Q9Y5N1)
# Sequence (Q9Y5N1 whole entry): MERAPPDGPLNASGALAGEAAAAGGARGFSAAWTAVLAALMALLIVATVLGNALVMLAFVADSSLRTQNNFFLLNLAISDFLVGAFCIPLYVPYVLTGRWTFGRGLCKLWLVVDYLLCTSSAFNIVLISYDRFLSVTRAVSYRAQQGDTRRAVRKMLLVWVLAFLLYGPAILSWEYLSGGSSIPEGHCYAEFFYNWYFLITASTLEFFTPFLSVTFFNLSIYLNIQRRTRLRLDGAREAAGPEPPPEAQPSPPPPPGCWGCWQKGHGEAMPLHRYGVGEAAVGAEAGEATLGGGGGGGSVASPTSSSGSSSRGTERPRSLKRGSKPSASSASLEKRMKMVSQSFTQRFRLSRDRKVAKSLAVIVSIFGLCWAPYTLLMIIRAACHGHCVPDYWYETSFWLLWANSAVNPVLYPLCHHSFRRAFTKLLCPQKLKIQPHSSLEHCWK
# protocol: Displacement of [3H]N-alpha-methylhistamine from human cloned H3 receptor
# particulars: read-out: Ki
Hi! Could you tag entries with Ki below 0.007 µM as condition met, and those at or above as condition not met? Much appreciated.

{"columns": ["compoundStructureString", "qualitativeLabel"],
 "data": [
  ["O=C(c1cccs1)N1CCc2ccc(OCCCN3CCCCC3)cc2C1", "condition not met"],
  ["c1cc2c(c(OCCCN3CCCCC3)c1)CCCN2", "condition not met"],
  ["O=S(=O)(c1ccccc1)N1CCc2cc(OCCCN3CCCCC3)ccc2C1", "condition not met"],
  ["O=S(=O)(c1ccccc1)N1CCCc2ccc(OCCCN3CCCCC3)cc21", "condition not met"],
  ["O=S(=O)(c1ccccc1)N1CCCc2cccc(OCCCN3CCCCC3)c21", "condition not met"],
  ["CCN1CCc2cccc(OCCCN3CCCCC3)c2C1", "condition not met"],
  ["c1cc2c(c(OCCCN3CCCCC3)c1)CNCC2", "condition not met"],
  ["CC(=O)N1CCc2ccc(OCCCN3CCCCC3)cc2CC1", "condition not met"],
  ["CS(=O)(=O)N1CCc2ccc(OCCCN3CCCCC3)cc2CC1", "condition not met"],
  ["c1cc2c(c(OCCCN3CCCCC3)c1)CCNC2", "condition not met"],
  ["CCN1CCCc2ccc(OCCCN3CCCCC3)cc21", "condition not met"],
  ["CCN1CCc2c(cccc2OCCCN2CCCCC2)C1", "condition not met"],
  ["c1cc2c(c(OCCCN3CCCCC3)c1)NCCC2", "condition not met"],
  ["c1cc2c(cc1OCCCN1CCCCC1)CNCC2", "condition met"],
  ["c1cc2c(cc1OCCCN1CCCCC1)CCCN2", "condition not met"],
  ["CCN1CCc2ccc(OCCCN3CCCCC3)cc2C1", "condition met"],
  ["O=C(c1cccs1)N1CCc2cccc(OCCCN3CCCCC3)c2C1", "condition not met"],
  ["O=C(c1cccs1)N1CCCc2cccc(OCCCN3CCCCC3)c21", "condition not met"],
  ["CCN1CCCc2cc(OCCCN3CCCCC3)ccc21", "condition not met"],
  ["CC(C)N1CCc2ccc(OCCCN3CCCCC3)cc2CC1", "condition met"],
  ["c1cc2c(cc1OCCCN1CCCCC1)CCCN2CC1CCCCC1", "condition not met"],
  ["CC(C)NC(=O)N1CCc2ccc(OCCCN3CCCCC3)cc2C1", "condition met"],
  ["CCN1CCCc2cc(OCCCN3CCCCC3)ccc2C1", "condition met"],
  ["c1cc2c(c(OCCCN3CCCCC3)c1)CCN(CC1CCCCC1)C2", "condition not met"],
  ["CC(=O)N1CCc2ccc(OCCCN3CCCCC3)cc2C1", "condition not met"],
  ["CCN1CCc2ccc(OCCCN3CCCCC3)cc2CC1", "condition met"]
]}
